I'd appreciate it if you could supply pKi values for the items below.
Target: full-length hepatitis C viral protein NS3•4A (Hepatitis C virus genotype 1a)
Construct: hexa-histidine (N); made in house; host or cells: Sf9 insect cells (baculovirus, pVL1392)
Test: biochemical
Set-up: species or system HCV sub-type strain 1a
Conditions: Enzyme Assay 2 (HCV NS3 Peptide Cleavage Assay) activity, apparent Ki class
pKi: −log10 of the molar value.

Any idea what its pKi is? The compound is CCC[C@H](NC(=O)[C@@H]1C[C@]2(CC(c3cc(C)c(OCC)c(Cl)c3)=NO2)CN1C(=O)[C@@H](NC(=O)OC1CCCC1)C(C)(C)C)C(=O)C(=O)NC
> 7.00

Try CCC[C@H](NC(=O)[C@@H]1C[C@]2(CC(c3cccc(Cl)c3)=NO2)CN1C(=O)[C@@H](NC(=O)CC1CCCCC1)C(C)(C)C)C(=O)C(=O)N1CC(OC[C@H]2CCCO2)C1 next.
< 6.30

Repeat for the following compound: CCC[C@H](NC(=O)[C@@H]1C[C@]2(CC(c3cccc(Cl)c3)=NO2)CN1C(=O)[C@H](Cc1ccsc1)NC(=O)CC1CCCCC1)C(=O)C(=O)NC1CC1
6.30 to 7.00

Same again, this time with CC(C)(C)[C@H](NC(=O)CC1CCCCCC1)C(=O)N1C[C@@]2(CC(c3cccc(Cl)c3)=NO2)C[C@H]1C(=O)N[C@@H](CC1CC1)C(=O)C(N)=O
> 7.00

Query CCC[C@H](NC(=O)[C@@H]1C[C@]2(CC(c3cccc(Cl)c3)=NO2)CN1C(=O)[C@@H](NC(=O)CC1CCCCC1)C(C)(C)C)C(=O)C(=O)Nc1ccc2c(C)cc(=O)[nH]c2c1 next
< 6.30

What do you get for CCC[C@H](NC(=O)[C@@H]1C[C@]2(CC(c3cc(C)c(OC)cc3OC)=NO2)CN1C(=O)[C@@H](NC(=O)CC1CCCCC1)C(C)(C)C)C(=O)C(=O)NC1CC1 ?
> 7.00

Ok, now COc1c(C)cc(C2=NO[C@]3(C2)C[C@@H](C(=O)N[C@@H](CC2CC2)C(=O)C(N)=O)N(C(=O)[C@@H](NC(=O)CC2CCCCC2)C(C)(C)C)C3)cc1Cl
> 7.00
